# TEST_TARGET: RAC-beta serine/threonine-protein kinase (Homo sapiens)
# Sequence (P31751 whole entry): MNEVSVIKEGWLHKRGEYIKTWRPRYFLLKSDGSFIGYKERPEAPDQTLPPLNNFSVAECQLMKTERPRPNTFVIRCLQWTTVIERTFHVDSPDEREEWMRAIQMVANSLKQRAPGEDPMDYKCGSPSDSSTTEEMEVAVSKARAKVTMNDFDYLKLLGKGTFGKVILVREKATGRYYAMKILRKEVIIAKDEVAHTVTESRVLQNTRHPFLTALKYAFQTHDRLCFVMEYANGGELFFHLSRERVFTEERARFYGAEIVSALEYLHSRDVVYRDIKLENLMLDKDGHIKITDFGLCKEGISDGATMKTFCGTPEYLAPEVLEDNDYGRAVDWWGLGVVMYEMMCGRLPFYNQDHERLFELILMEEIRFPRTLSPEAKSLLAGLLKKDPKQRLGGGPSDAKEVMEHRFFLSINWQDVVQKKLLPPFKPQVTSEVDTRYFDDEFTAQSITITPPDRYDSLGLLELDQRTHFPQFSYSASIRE
# METHOD_DESCRIPTION: Inhibition of PKBbeta recombinant by radiometric filter binding assay
pIC50: −log10 of the molar value.
ENDPOINT_LABEL: pIC50

P: NCC1(Cc2ccc(Cl)cc2)CCN(c2ncnc3[nH]cnc23)CC1
Q: c1nc(N2CCCCC2)c2nc[nH]c2n1
Query: Identify the entry with the larger pIC50. Options: P and Q Reply with the label of the item you choose.
Response: P

1: NC1(Cc2ccc(Cl)cc2)CCN(c2ncnc3[nH]cnc23)CC1
2: NC1CCN(c2ncnc3[nH]ccc23)CC1
3: NC(c1ccc(Cl)cc1)C1CCN(c2ccnc3[nH]ccc23)CC1 (centres undefined)
4: NC1(c2ccc(Cl)cc2)CCN(c2ncnc3[nH]ccc23)CC1
5: NC1CCN(c2ncnc3[nH]ncc23)CC1
Query: Reorder the items by pIC50, least to greatest. When ranking, write the labels in the order the request describes.
Response: 5, 2, 1, 3, 4

1: NCC1(c2ccc(Cl)cc2)CCN(c2ncnc3[nH]ccc23)CC1
2: NC(c1ccc(Cl)cc1)C1CCN(c2ncnc3[nH]ccc23)CC1 (centres undefined)
Query: Lab note: record which item had the higher pIC50, 1 or 2 . Returns: label corresponding to the selected item.
Response: 1
(1: 8.10, 2: 7.60)

P: NCC1(Cc2ccc(Cl)cc2)CCN(c2ncnc3[nH]ccc23)CC1
Q: NC(c1ccc(Cl)cc1)C1CCN(c2ncnc3[nH]cnc23)CC1 (centres undefined)
Query: Compare reported pIC50 values for P and Q . Which is lower? Answer by quoting the chosen item's label.
Response: Q

a: NCC1CCN(c2ncnc3[nH]ccc23)CC1
b: NC1(c2ccc(Cl)cc2)CCN(c2ncnc3[nH]cnc23)CC1
Query: # argmax over pIC50 for candidates a and b Please reply using the label of the selected record.
Response: b
